Biological target: AT1 receptor (Homo sapiens (Human))
Test: AT1 receptor binding inhibitory action
Structures can show the parent of a compound that is named as a salt.
Listing of entries alongside the reported IC50.
A number alone suffices; assume nM.

CCc1cc2c(=O)n(CC(=O)c3ccc(OC)cc3)c(=O)n(Cc3ccc(-c4ccccc4-c4noc(O)n4)cc3Br)c2s1 [Ex. 194, potassium salt]; 1.7

Identify measured IC50 associated with CCc1cc2c(=O)n(CC(OC(C)=O)c3ccc(OC)cc3)c(=O)n(Cc3ccc(-c4ccccc4-c4noc(=O)[nH]4)cc3F)c2s1 (stereo not drawn) 1.3

Give the measured IC50 for CCc1cc2c(=O)n(CC(=O)c3ccc(OC)cc3)c(=O)n(Cc3ccc(-c4ccccc4-c4noc(O)n4)cc3C)c2s1 [Ex. 116, potassium salt] 1.8

Determine its reported IC50: COc1cc(F)ccc1C(=O)Cn1c(=O)c2cc(C3CC3)sc2n(Cc2ccc(-c3ccccc3-c3noc(=O)[nH]3)cc2F)c1=O 1.6

Specify measured IC50 for COc1ccccc1C(=O)Cn1c(=O)c2cc(C3CC3)sc2n(Cc2ccc(-c3ccccc3-c3noc(O)n3)cc2)c1=O [Ex. 99, potassium salt] . 1.2

Consider the molecule CCc1cc2c(=O)n(-c3ccc4c(c3)CC(C)(C)O4)c(=O)n(Cc3ccc(-c4ccccc4-c4noc(=O)[nH]4)cc3F)c2s1 . State its measured IC50. 1.2

Using the record for CCc1cc2c(=O)n(CCN3CCOCC3)c(=O)n(Cc3ccc(-c4ccccc4-c4noc(=O)[nH]4)cc3F)c2s1 , state its measured IC50. 1.8

Supply IC50 value. Item: CCc1cc2c(=O)n(CC(=O)c3ccc(OC)cc3C)c(=O)n(Cc3ccc(-c4ccccc4-c4noc(=O)[nH]4)cc3)c2s1 1

Quick one: give measured IC50 for COc1cc(F)ccc1C(=O)Cn1c(=O)c2cc(C3CC3)sc2n(Cc2ccc(-c3ccccc3-c3noc(=O)[nH]3)cc2)c1=O 1.6

###

Each record here notes measured IC50.
Target: AT1 receptor (Homo sapiens (Human), UniProt P30556)
Sequence (P30556 whole entry): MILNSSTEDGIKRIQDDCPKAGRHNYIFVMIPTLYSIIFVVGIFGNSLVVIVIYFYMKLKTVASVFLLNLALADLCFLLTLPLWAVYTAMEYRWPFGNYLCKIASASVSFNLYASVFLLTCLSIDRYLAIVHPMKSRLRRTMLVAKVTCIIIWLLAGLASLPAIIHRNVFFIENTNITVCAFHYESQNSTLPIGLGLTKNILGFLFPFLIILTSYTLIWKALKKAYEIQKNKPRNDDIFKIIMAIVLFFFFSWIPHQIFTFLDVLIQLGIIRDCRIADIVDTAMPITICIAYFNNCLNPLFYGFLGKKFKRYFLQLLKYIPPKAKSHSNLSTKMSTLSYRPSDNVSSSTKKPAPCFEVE
Assay: AT1 receptor binding inhibitory action
Dear colleague, please return just the value in nM, with no unit written.

CCc1cc2c(=O)n(CC(=O)C(C)(C)C)c(=O)n(Cc3ccc(-c4ccccc4-c4noc(=O)[nH]4)cc3)c2s1; 1.2
CCc1cc2c(=O)n(CC(=O)c3ccc(OC)cc3)c(=O)n(Cc3ccc(-c4ccc(F)cc4-c4noc(=O)[nH]4)cc3)c2s1; 1.5
O=c1[nH]c(-c2ccccc2-c2ccc(Cn3c(=O)n(CCc4ccc(Cl)cc4)c(=O)c4cc(CC(F)(F)F)sc43)cc2)no1; 1.6

// switching to the query compound
Identify IC50 associated with the compound CCc1cc2c(=O)n(CC(C)(C)C)c(=O)n(Cc3ccc(-c4ccccc4-c4noc(=O)[nH]4)cc3)c2s1 1.9

###

Biological target: UniProtKB P30556
Test: AT1 receptor binding inhibitory action
Outcome measure: IC50 (nM)
Express it in nM; write the number only.

# example entries with known answers
CCc1cc2c(=O)n(CC(=O)c3nc4ccccc4n3C)c(=O)n(Cc3ccc(-c4ccccc4-c4noc(=O)[nH]4)cc3)c2s1 [Ex. 140]; 1.7
CCc1cc2c(=O)n(CC(=O)c3ccc(OC)cc3)c(=O)n(Cc3ccc(-c4cc(F)ccc4-c4noc(=O)[nH]4)cc3)c2s1 [Ex. 203]; 1.8
O=c1[nH]c(-c2ccccc2-c2ccc(Cn3c(=O)n(CCc4cccc(F)c4)c(=O)c4cc(CC(F)(F)F)sc43)cc2)no1 [Ex. 60]; 1
CCc1cc2c(=O)n(CC(=O)c3ccc(OC)cc3)c(=O)n(Cc3c(F)cc(-c4ccccc4-c4noc(=O)[nH]4)cc3F)c2s1 [Ex. 197]; 1.4

Give reported IC50 value for CCc1cc2c(=O)n(CC(O)C(C)(C)C)c(=O)n(Cc3ccc(-c4ccccc4-c4noc(=O)[nH]4)cc3)c2s1 (stereo not shown) [Ex. 149] 1.8

Give a short answer stating reported IC50 for O=C(Cn1c(=O)c2cc(C3CC3)sc2n(Cc2ccc(-c3ccccc3-c3noc(=O)[nH]3)cc2)c1=O)c1ccc(F)cc1 [Ex. 63] . 1.1

Please supply the value of reported IC50 for the item CCc1cc2c(=O)n(CC(=O)C3CCCCC3)c(=O)n(Cc3ccc(-c4ccccc4-c4noc(=O)[nH]4)cc3)c2s1 [Ex. 205] 1.5

// provenance: patent US8501750B2
